Source of measurements: paper PMC8892312

# TEST_TARGET: T1, HBsu (histone-like protein HU of B. subtilis), recombinant (Bacillus subtilis, UniProt P08821 1-92)
# T1 sequence: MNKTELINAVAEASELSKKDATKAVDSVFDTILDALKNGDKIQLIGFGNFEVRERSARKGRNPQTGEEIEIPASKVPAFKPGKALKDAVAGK
# MEASUREMENT_PROTOCOL: ITC
pKd: −log10 of the molar value.

- BINDER: "Gp46 from bacteriophage SPO1 (natural protein) MMTEDQKFKYLTKIEELEAGCFSDWTKEDITGDLKYLKKGIIEESIELIRAVNGLTYSEELHDFTQEIIEELDISPL"
  pKd: 6.56
